Test system: DYRK1B
CONDITION_LABEL: concentration: 1 μM, replicates: in singlicate; n = 1;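 also: KINOMEscan kinase panel screen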
// values below are reported %Inh
Report the value in % with no unit label.

CC(C)N1CCC(n2cnc(-c3ccc(F)cc3)c2-c2ccnc(N)n2)CC1	5
Cn1cc(-c2ccc3c(c2)CCN3C(=O)Cc2cccc(C(F)(F)F)c2)c2c(N)ncnc21	0
Nc1nc(-c2cccnc2)c(-c2ccnc3ccccc23)s1	0
COC(=O)c1c(-c2ccccc2)c2cc(Cl)ccc2c(=O)n1Cc1ccc(S(C)(=O)=O)cc1	10
Cc1ccc(O)cc1Nc1cc(C(F)(F)F)nc2ccc(-c3ccncc3)cc12	7
Fc1cccc(COc2ccc(Nc3ncnc4cc[nH]c34)cc2Cl)c1	25
COc1ccc(Nc2nccc(N3CCC(NC(=O)Nc4ccc5c(c4)OCO5)C3)n2)cc1 (stereo not drawn)	5
Nc1nc(-c2ccccn2)c(-c2ccnc3ccccc23)s1	0

-- ask Item "Cc1cc(N2CCC(NS(=O)(=O)c3ccc(F)cc3)CC2)nc(Nc2cccc(C#N)c2)n1.O=C(O)C(F)(F)F" : provide %Inh
-- reply 97.7

---

Test system: PIK3CB
CONDITION_LABEL: concentration: 1 μM, replicates: in singlicate; n = 1
QUANTITY_KIND: %Inh (%)
Report the value in % with no unit label.

Nc1nc(-c2ccc3c(N)n[nH]c3c2)cc(N2CCC[C@@H](C(=O)Nc3ccccc3)C2)n1.O=C(O)C(F)(F)F.O=C(O)C(F)(F)F [GSK2288359]	0
O=c1cc(N2CCOCC2)nc2n(Cc3cccc(Cl)c3)ccn12 [GSK2296823]	98.5
CN1CCC(n2cnc(-c3ccc(F)cc3)c2-c2ccnc(NC3CCNCC3)n2)CC1 [SB-229482]	37
Cc1cc(N2CCC(NS(=O)(=O)c3ccc(F)cc3)CC2)nc(Nc2cccc(C#N)c2)n1.O=C(O)C(F)(F)F [GSK1653537]	2
Nc1n[nH]c2nnc(-c3ccccc3)cc12 [SB-517389]	0

-- ask Check PIK3CB data and give %Inh for CC(C)N1CCC(n2cnc(-c3ccc(F)cc3)c2-c2ccnc(N)n2)CC1 [SB-223132] .
-- reply 0

-- ask Check PIK3CB data and give %Inh for Cc1ccc(NC(=O)c2cccc(C#N)c2)cc1-c1ccc(C(=O)Nc2ccncc2)cc1 [GSK1398463] .
-- reply 0

-- ask Check PIK3CB data and give %Inh for Cl.O=S(=O)(c1cccc(F)c1)c1ccc(Nc2ncnc3cc(Br)sc23)cc1Cl [GSK306886] .
-- reply 0

---

System: MARK4
CONDITION_LABEL: concentration: 1 μM, replicates: in singlicate; n = 1
QUANTITY_KIND: %Inh (%)
Report the value in % with no unit label.

Examples with answers:
Clc1cccc(-c2nc(Nc3ccncc3)c3ccccc3n2)c1 [GW873004]	23
CCCc1ccc(S(=O)(=O)NC2CCN(c3ccnc(Nc4ccc(OC)cc4)n3)C2)cc1 (stereo not drawn) [GSK1379737]	0
O=c1cc(N2CCOCC2)nc2n(Cc3cccc(Cl)c3)ccn12 [GSK2296823]	5
CNc1nccc(-c2c(-c3ccc(F)cc3)ncn2C2CCN(C)CC2)n1 [SB-222903]	16
CCC(CC)(CC)n1cnc2c(N)ncnc21 [SKF-97620]	37
O=C(Nc1n[nH]c2nc(-c3ccco3)c(Br)cc12)c1ccc(CN2CCCC2)cc1.O=C(O)[C@H](O)[C@@H](O)C(=O)O [SB-742352]	2
Nc1nccc2scc(-c3ccc4c(c3)CCN4C(=O)Cc3cc(F)ccc3F)c12 [GSK2587663]	0
FC(F)(F)c1cc(Nc2nccc(-c3c(-c4ccc(Cl)cc4)nn4ncccc34)n2)ccc1Cl [GW829351]	17

Consider the additional molecule presented here.
-- ask Item "OCCOCCn1ccc2ncnc(Nc3ccc(Oc4cccc(Cl)c4)c(Cl)c3)c21" : provide %Inh
-- reply 31
